- MEASUREMENT PROTOCOL: folding enthalpy; higher = less favourable; fluorescence melt of hairpins on a sequencing array, two-state fit
- ASSAY CONDITIONS: sodium 0.088 M
Classify as follows. Reported folding enthalpy greater than or equal to -20 kcal/mol: rule met. Reported folding enthalpy below: rule not met.

GCCTTGCGAAAGCTATGC ((.(.((....)).).))
rule met

Answer whether folding enthalpy of GGCCGCCGAAAGGCTGCC (((.(((....))).))) is greater than or equal to -20 kcal/mol.
rule not met

Answer whether folding enthalpy of GGTGCGGCGAAAGCCACC (((..(((....)))))) is greater than or equal to -20 kcal/mol.
rule met

Answer whether folding enthalpy of GAAAAGCCGAAAGGCTTC (((..(((....)))))) is greater than or equal to -20 kcal/mol.
rule met

Answer whether folding enthalpy of GGCATCACGAAAGTGGCC (((..(((....)))))) is greater than or equal to -20 kcal/mol.
rule not met
